pIC50: −log10 of the molar value.
Record: compiled pIC50 on Collagenase 3 (Homo sapiens) from multiple reports.
OBSERVABLE: pIC50

INSERT INTO assay_data (compound, measurement_target, result) VALUES
  ('O=C1COc2ccc(CNC(=O)c3nc4scc(-c5nccs5)c4c(=O)[nH]3)cc2N1', 'Collagenase 3 (Homo sapiens)', '> 7.00'),
  ('CCC(CC)NC(=O)c1c[nH]c2c(C(=O)NCc3ccc4c(c3)NC(=O)CO4)ncnc12', 'Collagenase 3 (Homo sapiens)', '4.70 to 7.00'),
  ('Cc1c(C(C)O)sc2nc(C(=O)NCc3ccc4c(c3)NC(=O)CO4)[nH]c(=O)c12 (centres unmarked)', 'Collagenase 3 (Homo sapiens)', '> 7.00'),
  ('O=C1CN(C(=O)c2c[nH]c3c(C(=O)NCc4ccc5c(c4)NC(=O)CO5)ncnc23)CCN1', 'Collagenase 3 (Homo sapiens)', '4.70 to 7.00'),
  ('Cc1cc(COc2ccc(S(=O)(=O)NC3CCN(CCO)CC3C(=O)NO)cc2)c2ccccc2n1 (mixture of isomers)', 'Collagenase 3 (Homo sapiens)', '< 5.00');

* * *

Literature roundup of Collagenase 3 (Homo sapiens, UniProt P45452) data, read-out IC50.
OBSERVABLE: IC50

INSERT INTO assay_data (compound, observable, result) VALUES
  ('Nc1c(N2CCc3ccc(CNC(=O)c4nc5sc6c(c5c(=O)[nH]4)CCOC6)cc3C2)c(=O)c1=O', 'IC50', '< 100 nM'),
  ('CC(=O)N1CC[C@@H](NS(=O)(=O)c2ccc(OCc3cc(C)nc4ccccc34)cc2)[C@@](C)(C(=O)NO)C1', 'IC50', '> 16700 nM'),
  ('CN1CCN(C(=O)NS(=O)(=O)N2CCN(S(=O)(=O)c3cc(F)c(Oc4ccc(Cl)cc4)c(F)c3)[C@@H](C(=O)NO)C2)CC1', 'IC50', '< 50 nM'),
  ('O=C1COc2ccc(CNC(=O)c3nc4ccc([N+](=O)[O-])cc4c(=O)[nH]3)cc2N1', 'IC50', '< 100 nM'),
  ('O=C(NO)[C@H]1CN(C(=O)Cc2ccncc2)CCN1S(=O)(=O)c1cc(F)c(Oc2ccc(Cl)cc2)c(F)c1', 'IC50', '< 50 nM'),
  ('NC(=O)CNC(=O)C1CCc2sc3nc(C(=O)NCc4ccc5c(c4)NC(=O)CO5)[nH]c(=O)c3c21 (stereo not shown)', 'IC50', '< 100 nM'),
  ('O=C(NO)[C@H]1CN(C(=O)NCCN2CCCC2)CCN1S(=O)(=O)c1cc(F)c(Oc2ccc(Cl)cc2)c(F)c1', 'IC50', '< 50 nM');

* * *

# merged literature set: IC50 with Collagenase 3 (Homo sapiens, UniProt P45452)
OBSERVABLE: IC50

INSERT INTO results (smiles, result) VALUES
  ('COc1cccc2c(=O)[nH]c(C(=O)NCc3ccc4c(c3)NC(=O)CO4)nc12', '100 to 20000 nM'),
  ('Nc1c(N2CCc3ccc(CNC(=O)c4nc5sc6c(c5c(=O)[nH]4)CCCCC6)cc3C2)c(=O)c1=O', '< 100 nM'),
  ('O=C1COc2ccc(CNC(=O)c3nc4scc(-c5cccnc5)c4c(=O)[nH]3)cc2N1', '< 100 nM'),
  ('CS(=O)(=O)N1CCN(S(=O)(=O)c2cc(F)c(Oc3ccc(Cl)cc3)c(F)c2)[C@@H](C(=O)NO)C1', '< 50 nM');
